Target: T1, NCYM (Homo sapiens, UniProt P40205 1-109)
T1 sequence: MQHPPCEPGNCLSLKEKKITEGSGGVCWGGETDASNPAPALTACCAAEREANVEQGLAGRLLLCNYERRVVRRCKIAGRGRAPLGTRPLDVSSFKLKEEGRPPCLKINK
Assay: BLI; text gives 299 nM as top of range; BLI: 25 C, NCYM 25-400 nM, buffer not stated (selection buffer: 40 mM HEPES pH 7.5, 125 mM NaCl, 5 mM KCl, 1 mM MgCl2, 0.01% Tween 20); AFM: 20 mM Tris-HCl pH 7.4, 10 mM MgCl2, 1 mM EDTA, 25 C, 2 h, NCYM 100 nM, aptamer frame 10 nM; SAXS: 293 K
Conditions: protein: recombinant; tags: N-terminal GST tag cleaved, 8 vector residues left (117 aa; stated for SAXS); label: 5'-biotin (BLI)
PARAMETER_MEASURED: Kd (nM)
Numeric answer only, unit nM assumed.

Request the reported Kd associated with aptamer No. 2 (ssDNA) DNA: GGAATGTGGTCCCTCGCAATAAATCGGGGAGGGAGGGTGGGGGCGGTGGGAGGTGGAAATGAGCCCTTTGACCCTGTAC 298
